# Tested on: Streptococcus pneumoniae ATCC 49619
# experimental-protocol: checkerboard synergy assay with iclaprim
# Type: cell-based
# test-parameters: antibiotic in combination with iclaprim; S. pneumoniae 49619
Measured Σ FIC by item

Identify the reported Σ FIC for the following entry. CCn1cc(C(=O)O)c(=O)c2cc(F)c(N3CCNCC3)cc21
1.00-1.25

----------
# System: Streptococcus pneumoniae ATCC 49619
# experimental-protocol: checkerboard synergy assay with iclaprim
# Assay type: cell-based
# test-parameters: antibiotic in combination with iclaprim; S. pneumoniae 49619
Measured Σ FIC by item

Tell me its Σ FIC on Streptococcus pneumoniae ATCC 49619: O=C(N[C@H](CO)[C@H](O)c1ccc([N+](=O)[O-])cc1)C(Cl)Cl
0.75-1.25

Tell me its Σ FIC on Streptococcus pneumoniae ATCC 49619: Nc1ccc(S(=O)(=O)Nc2ncccn2)cc1
0.13-0.53

Tell me its Σ FIC on Streptococcus pneumoniae ATCC 49619: [H]/N=C(/N)N[C@H]1[C@H](O)[C@@H](O)[C@H](O[C@@H]2O[C@@H](C)[C@](O)(C=O)[C@H]2O[C@@H]2O[C@@H](CO)[C@H](O)[C@@H](O)[C@@H]2NC)[C@@H](N/C(N)=N\[H])[C@@H]1O
1.00-1.25

Tell me its Σ FIC on Streptococcus pneumoniae ATCC 49619: CCN1CCN(C(=O)N[C@@H](C(=O)N[C@@H]2C(=O)N3[C@@H]2SC(C)(C)[C@@H]3C(=O)O)c2ccccc2)C(=O)C1=O
1.02-1.50

Tell me its Σ FIC on Streptococcus pneumoniae ATCC 49619: CC(=O)O[C@H]1C[C@@]2(C)[C@@H](C[C@@H](O)[C@H]3[C@@]4(C)CC[C@@H](O)[C@@H](C)[C@@H]4CC[C@@]32C)/C1=C(\CCC=C(C)C)C(=O)O
1.13-1.50

Continue with the compound presented below.
Tell me its Σ FIC on Streptococcus pneumoniae ATCC 49619: COc1cc(Cc2cnc(N)nc2N)cc(OC)c1OC
1.00-1.25

FYI, the data here is from patent US20200038399A1.
